method_description: basal RPMI8226 viability, no added stimulus, profiling panel, cell-based, calcein-AM fluorescence, 48 h, PK04 Diversity Set (AID 1166);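 further: cells grown under basal conditions without added stimulus; test concentration not given here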
study_conditions: RPMI8226 myeloma viability, higher = more signal
observed_property: z-score

Examples with their reported z-score follow.
• COCCCNC(=O)[C@@]1(C)c2ccccc2C(=O)N(C(C)C)[C@H]1c1ccc(CO)cc1 = 0.532
• COCCOC(=O)N1C(=O)[C@@]2(c3cc(C#CCC(C(=O)OC)C(=O)OC)ccc31)[C@H](c1ccccc1OCCO)N1[C@H](c3ccccc3)[C@H](c3ccccc3)OC(=O)[C@H]1[C@@H]2C(=O)N1CCN(c2ncccn2)CC1 = -2.45

Request: For the molecule shown here, `C=CCN1C(=O)[C@@]2(CC=C)N=C(c3ccc(OCCCO)cc3)O[C@H]2c2ccccc21` , give the reported z-score.
Response: -3.72

Request: For the molecule shown here, `CC(C)C[C@@H]1NC(=O)[C@@H]2C[C@H](C(=O)O)[C@H](c3cccc(OCCO)c3)N2C1=O` , give the reported z-score.
Response: -0.57

These entries and their values trace back to PubChem BioAssay.
